protocol.description: Drug metabolism in human hepatic microsomes assessed as compound lability in presence of CYP3A4 inhibitor ketoconazole by LC-MS/MS method
Type: ADME, Microsome
recorded.conditions: liver microsomes, with ketoconazole (CYP3A4 inhibitor), concentration not stated, read-out: Drug metabolism
assay.endpoint: metabolised (%)
Report the figure in % without appending any unit label.

Data request: Query: metabolised; subject: "Cc1nnc(C)n1-c1ccc(O[C@H]2c3cc(Cl)cc(Cl)c3C[C@@H]2N2CC[C@@H](O)C2)c(F)c1.Cl"
Data returned: 5

====

protocol.description: Drug metabolism in hamster hepatic microsomes assessed as compound lability by LC-MS/MS method
Format: ADME, Microsome
recorded.conditions: cricetinae, liver microsomes; read-out: Drug metabolism
assay.endpoint: metabolised

Data request: Entry "Cc1nnc(C)n1-c1ccc(O[C@H]2c3cc(Cl)cc(Cl)c3C[C@@H]2N2CC[C@@H](O)C2)c(F)c1.Cl" : reported metabolised = ?
Data returned: > 60%

====

protocol.description: Half life in Duroc Landrace pig at 3 mg/kg, po administered as single dose by ESI-LC-MS/MS method
Assay type: ADME, organism-based, Sus scrofa
recorded.conditions: in vivo
assay.endpoint: half-life (min)
Enter your answer as a number in min; do not include the unit.

Data request: // query half-life value for entry "Cc1nnc(C)n1-c1ccc(O[C@H]2c3cc(Cl)cc(Cl)c3C[C@@H]2N2CC[C@@H](O)C2)c(F)c1.O=P(O)(O)O"
Data returned: 1080

====

protocol.description: Drug metabolism in Landrance pig hepatic microsomes assessed as compound lability by LC-MS/MS method
Format: ADME, Sus scrofa, Microsome
recorded.conditions: Landrace, liver microsomes, read-out: Drug metabolism
assay.endpoint: metabolised (%)
# number only, unit % dropped from output

Data request: # lookup: metabolised of "Cc1nnc(C)n1-c1ccc(O[C@H]2c3cc(Cl)cc(Cl)c3C[C@@H]2N2CC[C@@H](O)C2)c(F)c1.Cl"
Data returned: 25

====

measured.target: Sodium/hydrogen exchanger 5 (Homo sapiens, UniProt Q14940)
Sequence (Q14940 whole entry): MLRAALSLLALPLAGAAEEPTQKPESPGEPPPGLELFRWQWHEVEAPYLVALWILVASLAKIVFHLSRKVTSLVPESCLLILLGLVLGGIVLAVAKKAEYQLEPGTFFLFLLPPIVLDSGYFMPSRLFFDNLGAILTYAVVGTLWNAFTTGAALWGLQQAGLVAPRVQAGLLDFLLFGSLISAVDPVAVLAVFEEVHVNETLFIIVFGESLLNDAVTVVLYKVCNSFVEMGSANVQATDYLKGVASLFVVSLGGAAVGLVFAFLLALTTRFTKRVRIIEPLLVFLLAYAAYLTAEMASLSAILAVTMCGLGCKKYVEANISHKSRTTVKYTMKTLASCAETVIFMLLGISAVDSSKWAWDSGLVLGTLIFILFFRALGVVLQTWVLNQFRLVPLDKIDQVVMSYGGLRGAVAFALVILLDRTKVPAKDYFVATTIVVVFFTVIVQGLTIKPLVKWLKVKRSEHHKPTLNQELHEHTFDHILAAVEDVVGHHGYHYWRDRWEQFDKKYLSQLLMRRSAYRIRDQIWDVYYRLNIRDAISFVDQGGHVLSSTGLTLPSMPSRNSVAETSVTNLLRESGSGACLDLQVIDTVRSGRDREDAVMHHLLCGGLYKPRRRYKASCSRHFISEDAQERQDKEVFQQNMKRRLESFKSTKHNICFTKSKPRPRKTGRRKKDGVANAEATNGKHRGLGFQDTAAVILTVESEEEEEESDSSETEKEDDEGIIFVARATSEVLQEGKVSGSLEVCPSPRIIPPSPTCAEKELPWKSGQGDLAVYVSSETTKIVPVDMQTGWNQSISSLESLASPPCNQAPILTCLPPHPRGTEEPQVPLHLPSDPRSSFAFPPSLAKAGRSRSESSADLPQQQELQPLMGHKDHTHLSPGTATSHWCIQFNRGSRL
protocol.description: Inhibition of human NHE5 expressed in LAP1 cell assessed as intracellular pH recovery measured for 2 mins by CECF-AM dye based FLIPR assay
assay.endpoint: pIC50
API: returns pIC50 as number; meaning -log10 of concentration in mol/L.

Data request: Query (molecule): "Cc1nnc(C)n1-c1ccc(O[C@H]2c3cc(Cl)cc(Cl)c3C[C@@H]2N2CC[C@@H](O)C2)c(F)c1.Cl" ; field requested: pIC50
Data returned: 6.54

====

protocol.description: Drug metabolism in mouse hepatic microsomes assessed as compound lability by LC-MS/MS method
Type: ADME, Microsome
recorded.conditions: liver microsomes, read-out: Drug metabolism
assay.endpoint: metabolised (%)
State just the number; it will be interpreted in %.

Data request: Consider the compound shown here: "Cc1nnc(C)n1-c1ccc(O[C@H]2c3cc(Cl)cc(Cl)c3C[C@@H]2N2CC[C@@H](O)C2)c(F)c1.Cl" What is its recorded metabolised?
Data returned: 25

====

measured.target: Sodium/hydrogen exchanger 2 (Homo sapiens, UniProt Q9UBY0)
Sequence (Q9UBY0 whole entry): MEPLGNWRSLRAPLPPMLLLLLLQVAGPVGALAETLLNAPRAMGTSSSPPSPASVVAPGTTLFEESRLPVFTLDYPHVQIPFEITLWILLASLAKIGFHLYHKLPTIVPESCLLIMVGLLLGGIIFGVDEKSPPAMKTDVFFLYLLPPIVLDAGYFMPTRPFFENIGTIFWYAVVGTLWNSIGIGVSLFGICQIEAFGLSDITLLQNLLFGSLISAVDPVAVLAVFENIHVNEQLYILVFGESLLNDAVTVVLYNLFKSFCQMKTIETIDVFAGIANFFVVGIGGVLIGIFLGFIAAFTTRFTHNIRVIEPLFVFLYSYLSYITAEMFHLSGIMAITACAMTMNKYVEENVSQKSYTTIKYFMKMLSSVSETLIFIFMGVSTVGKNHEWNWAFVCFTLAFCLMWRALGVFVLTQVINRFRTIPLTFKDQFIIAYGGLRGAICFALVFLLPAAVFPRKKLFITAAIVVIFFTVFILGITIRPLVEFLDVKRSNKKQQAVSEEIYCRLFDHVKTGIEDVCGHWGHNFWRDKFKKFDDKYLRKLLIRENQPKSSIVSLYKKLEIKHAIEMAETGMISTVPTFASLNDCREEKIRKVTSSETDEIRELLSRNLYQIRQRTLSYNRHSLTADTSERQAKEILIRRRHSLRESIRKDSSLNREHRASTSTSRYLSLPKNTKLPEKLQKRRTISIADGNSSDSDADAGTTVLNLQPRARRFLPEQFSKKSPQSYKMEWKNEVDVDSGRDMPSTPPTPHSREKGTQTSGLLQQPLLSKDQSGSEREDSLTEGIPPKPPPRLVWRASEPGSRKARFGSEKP
protocol.description: Inhibition of human NHE2 expressed in LAP1 cell assessed as intracellular pH recovery measured for 2 mins by CECF-AM dye based FLIPR assay
assay.endpoint: IC50

Data request: Endpoint output: IC50 of "Cc1nnc(C)n1-c1ccc(O[C@H]2c3cc(Cl)cc(Cl)c3C[C@@H]2N2CC[C@@H](O)C2)c(F)c1.Cl" . Value?
Data returned: > 100 µM

====

measured.target: Sodium/hydrogen exchanger 3 (Homo sapiens)
protocol.description: Inhibition of human NHE3 expressed in LAP1 cell assessed as intracellular pH recovery measured for 2 mins by CECF-AM dye based FLIPR assay
pIC50: −log10 of the molar value.
Use class 1 when the recorded pIC50 is no lower than 7; use class 0 when it is lower.

Data request: Evaluate "CS(=O)(=O)c1ccc(O[C@H]2c3cc(Cl)cc(Cl)c3C[C@@H]2N2CC[C@@H](F)C2)cc1" : pIC50 at minimum 7?
Data returned: class 0

Others:
Data request: Assess whether reported pIC50 for "CS(=O)(=O)c1ccc(O[C@H]2c3cc(Cl)cc(Cl)c3C[C@@H]2N2CC[C@@H](O)C2)cc1" sits at 7 or higher.
Data returned: class 0

Data request: Quick check: does "CS(=O)(=O)c1ccc(O[C@H]2c3cc(Cl)cc(Cl)c3C[C@@H]2N2CCCN(CCO)CC2)cc1" have pIC50 greater than or equal to 7?
Data returned: class 1

====

protocol.description: Drug metabolism in human hepatic microsomes assessed as compound lability by LC-MS/MS method
Type: ADME, Microsome
recorded.conditions: liver microsomes, read-out: Drug metabolism
assay.endpoint: metabolised (%)
Give a bare numeral; the unit % is implied.

Data request: Look at this compound and give its reported metabolised. "Cc1nnc(C)n1-c1ccc(O[C@H]2c3cc(Cl)cc(Cl)c3C[C@@H]2N2CC[C@@H](O)C2)c(F)c1.Cl"
Data returned: 25

====

protocol.description: Drug metabolism in guinea pig hepatic microsomes assessed as compound lability by LC-MS/MS method
Format: ADME, Cavia porcellus, Microsome
recorded.conditions: liver microsomes, read-out: Drug metabolism
assay.endpoint: metabolised
Could you give the number and then its unit, please?

Data request: Any idea what its metabolised is? The compound is "Cc1nnc(C)n1-c1ccc(O[C@H]2c3cc(Cl)cc(Cl)c3C[C@@H]2N2CC[C@@H](O)C2)c(F)c1.Cl"
Data returned: 25%

====

protocol.description: Inhibition of cat NHE3 expressed in LAP1 cell assessed as intracellular pH recovery measured for 2 mins by CECF-AM dye based FLIPR assay
recorded.conditions: Felis catus, LAP1, 2 min
assay.endpoint: IC50 (nM)
All answers are understood in nM, so give the number only.

Data request: Dear colleague, I am looking for the recorded IC50 of the following compound: "Cc1nnc(C)n1-c1ccc(O[C@H]2c3cc(Cl)cc(Cl)c3C[C@@H]2N2CC[C@@H](O)C2)c(F)c1.Cl"
Data returned: 6.1

====

measured.target: Sodium/hydrogen exchanger 3 (Homo sapiens, UniProt P48764)
Sequence (P48764 whole entry): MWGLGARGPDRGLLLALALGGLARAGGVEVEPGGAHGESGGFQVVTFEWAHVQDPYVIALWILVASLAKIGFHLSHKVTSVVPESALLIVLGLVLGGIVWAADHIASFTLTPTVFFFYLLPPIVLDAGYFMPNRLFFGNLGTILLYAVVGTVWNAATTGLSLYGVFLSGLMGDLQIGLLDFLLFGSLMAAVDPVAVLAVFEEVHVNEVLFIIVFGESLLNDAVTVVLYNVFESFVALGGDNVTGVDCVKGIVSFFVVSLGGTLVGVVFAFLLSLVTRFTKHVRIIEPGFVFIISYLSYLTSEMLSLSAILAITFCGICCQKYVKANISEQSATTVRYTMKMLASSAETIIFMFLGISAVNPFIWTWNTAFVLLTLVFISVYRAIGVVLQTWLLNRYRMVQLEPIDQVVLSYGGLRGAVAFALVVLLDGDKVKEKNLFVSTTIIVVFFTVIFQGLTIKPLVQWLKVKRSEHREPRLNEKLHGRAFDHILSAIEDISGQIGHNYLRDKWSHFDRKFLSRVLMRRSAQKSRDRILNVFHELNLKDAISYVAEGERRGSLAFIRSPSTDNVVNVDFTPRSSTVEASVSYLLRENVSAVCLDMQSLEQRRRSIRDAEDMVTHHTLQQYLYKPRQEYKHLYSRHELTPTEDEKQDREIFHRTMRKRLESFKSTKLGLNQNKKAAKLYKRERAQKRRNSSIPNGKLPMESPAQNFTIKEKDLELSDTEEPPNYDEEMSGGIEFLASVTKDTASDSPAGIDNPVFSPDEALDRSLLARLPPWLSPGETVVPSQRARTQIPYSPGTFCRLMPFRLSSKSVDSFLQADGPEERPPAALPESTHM
protocol.description: Inhibition of human NHE3 expressed in LAP1 cell assessed as intracellular pH recovery measured for 2 mins by CECF-AM dye based FLIPR assay
assay.endpoint: IC50 (nM)
Write down the numeric answer in nM and omit the unit.

Would you please look over these solved cases?
Data request: Which IC50 value belongs to "CC(=O)Nc1ccc(O[C@H]2c3ccccc3C[C@@H]2N2CCCC2)cc1" ?
Data returned: 2770

Data request: I would be grateful if you could share the reported IC50 for CS(=O)(=O)c1ccc(O[C@H]2c3cc(Cl)cc(F)c3C[C@@H]2N2CCNCC2)cc1 (racemic) .
Data returned: 168

Data request: Requested field: IC50. Item: "O=C1OCc2cc(O[C@H]3c4ccccc4C[C@@H]3N3CCCC3)ccc21"
Data returned: 2440

Next:
Data request: Entry under review: CS(=O)(=O)c1ccc(OC2c3cc(Cl)cc(Cl)c3CC2N2C[C@H]3CNC[C@H]3C2)cc1 (single isomer, unassigned) . Reported IC50?
Data returned: 28

Data request: Suppose we examine the compound "CCN(CC)C(=O)c1ccc(O[C@H]2c3ccccc3C[C@@H]2N2CCCC2)cc1" ; what IC50 value has been reported?
Data returned: 2070

Data request: Returns the measured IC50 for the input compound. Input: "c1ccc2c(c1)C[C@H](N1CCCC1)[C@H]2Oc1ccc(-c2nccs2)cc1"
Data returned: 1710

Data request: Suppose we examine the compound "Cc1c(O[C@H]2c3ccccc3C[C@@H]2N2CCCC2)ccc(-n2c(C)nnc2C)c1C" ; what IC50 value has been reported?
Data returned: 170

Data request: // returns reported IC50 for input "CS(=O)(=O)c1ccc(O[C@H]2c3ccccc3C[C@@H]2N2CCCC2)cc1"
Data returned: 572

Data request: Fill in: IC50 of CS(=O)(=O)c1ccc(O[C@H]2c3cc(Cl)cc(Cl)c3C[C@@H]2N2CCC3(CCNC3)C2)cc1 (some centres undefined) is ___
Data returned: 11
